- Tested on: Echinochloa crus-galli
- MEASUREMENT NOTES: Herbicidal activity against Echinochloa crus-galli (barnyard grass) assessed as growth inhibition at 100 ug/ml
- Format: functional
- CONDITION INFO: read-out: GI
Note to self: values exactly at 30% are Condition met. So inhibition of growth at 100 µg/mL at or above 30% is Condition met, below is Condition not met.

> print(dat)
                                   molecule     assigned.label
1  O=C(N/N=C\c1ccco1)c1cc2c(cn1)[nH]c1ccccc12  Condition not met
2  COc1cc(/C=N\NC(=O)C2Cc3c([nH]c4ccccc34)CN2)cc(OC)c1OC (stereo not given)  Condition not met
3  Cc1n[nH]c(Cl)c1/C=N\NC(=O)c1cc2c(cn1)[nH]c1ccccc12  Condition not met
4  COc1ccc(/C=N\NC(=O)C2Cc3c([nH]c4ccccc34)CN2)cc1 (stereo not given)  Condition not met
5  O=C(N/N=C\c1ccccc1O)c1cc2c(cn1)[nH]c1ccccc12      Condition met
